Data provenance is patent US8148373B2.

Target: human muscarinic acetylcholine M3 receptor (M3-ACh) (Homo sapiens, UniProt P20309)
Construct: expressed in transfected cells; host or cells: CHO-K1 (Chinese Hamster Ovary) cell membranes
Sequence (P20309 whole entry): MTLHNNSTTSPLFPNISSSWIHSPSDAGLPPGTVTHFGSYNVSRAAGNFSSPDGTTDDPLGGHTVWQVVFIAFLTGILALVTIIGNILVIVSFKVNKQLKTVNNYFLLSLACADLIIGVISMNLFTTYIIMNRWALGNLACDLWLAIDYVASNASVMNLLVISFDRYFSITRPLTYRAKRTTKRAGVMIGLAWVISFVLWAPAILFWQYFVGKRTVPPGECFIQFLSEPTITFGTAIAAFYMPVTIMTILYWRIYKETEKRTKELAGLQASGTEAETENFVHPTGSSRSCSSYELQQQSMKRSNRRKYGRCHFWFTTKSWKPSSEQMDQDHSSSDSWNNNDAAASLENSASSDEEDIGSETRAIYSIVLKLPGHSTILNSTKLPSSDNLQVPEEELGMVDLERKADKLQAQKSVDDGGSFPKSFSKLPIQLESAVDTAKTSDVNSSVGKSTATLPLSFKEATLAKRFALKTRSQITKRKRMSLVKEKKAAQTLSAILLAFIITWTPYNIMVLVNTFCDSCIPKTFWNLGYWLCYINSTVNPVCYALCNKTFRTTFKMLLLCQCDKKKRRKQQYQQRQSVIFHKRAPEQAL
Experiment: Muscarinic 3 Receptor Binding Assay, % inhibition specific binding at 1 μM
Conditions: 1 μM compound, % inhibition specific [3H]-NMS binding
Experimental: The following experimental procedure was used to determine the M3% inhibition at 1 μM of the compounds of Examples 116-263. Muscarinic 3 Receptor Binding Assay The activity (% inhibition specific binding) of compounds -on the M3 receptor is determined by competition binding of [^3H]N-methyl scopolamine (NMS) to CHO-K1 (Chinese Hamster Ovary) cell membranes expressing the human muscarinic acetylcholine M3 receptor (M3-ACh) in a scintillation proximity assay (SPA) format. […]
Record form. Attribute: inhibition at 1 µM. Fill in for each entry.
Respond with a number, then the unit of measure.

Any idea what its inhibition at 1 µM is? The compound is O=C(CCCc1cccs1)N1CCOC2(CCN(CCCCCCCCCNC[C@H](O)c3ccc(O)c4[nH]c(=O)sc34)CC2)C1
97%

Any idea what its inhibition at 1 µM is? The compound is Cc1nc(C)c(CC(=O)N2CCOC3(CCN(CCOc4ccc(CNC[C@H](O)c5ccc(O)c6[nH]c(=O)sc56)cc4)CC3)C2)s1
10%

Any idea what its inhibition at 1 µM is? The compound is Cc1ccn(CC(=O)N2CCOC3(CCN(Cc4cc(F)cc(CCNC[C@H](O)c5ccc(O)c6[nH]c(=O)sc56)c4)CC3)C2)n1
67%

Any idea what its inhibition at 1 µM is? The compound is O=C(COCc1ccccc1)N1CCOC2(CCN(CCCCCCCCCNC[C@H](O)c3ccc(O)c4[nH]c(=O)sc34)CC2)C1
94%

Any idea what its inhibition at 1 µM is? The compound is Cc1ccsc1C(=O)N1CCOC2(CCN(Cc3cc(F)cc(CCNC[C@H](O)c4ccc(O)c5[nH]c(=O)sc45)c3)CC2)C1
52%

Any idea what its inhibition at 1 µM is? The compound is O=C(Cc1ccc(-c2ccccc2)cc1)N1CCOC2(CCN(Cc3cc(F)cc(CCNC[C@H](O)c4ccc(O)c5[nH]c(=O)sc45)c3)CC2)C1
62%

====

target: human muscarinic acetylcholine M3 receptor (M3-ACh) (Homo sapiens); construct: expressed in transfected cells; host or cells: CHO-K1 (Chinese Hamster Ovary) cell membranes; experiment: Muscarinic 3 Receptor Binding Assay, % inhibition specific binding at 1 μM; conditions: 1 μM compound, % inhibition specific [3H]-NMS binding
MEASURED_ENDPOINT: inhibition at 1 µM (%)
Report the value in % with no unit label.

Any idea what its inhibition at 1 µM is? The compound is Cc1nc(CC(=O)N2CCOC3(CCN(CCOc4ccc(CNC[C@H](O)c5ccc(O)c6[nH]c(=O)sc56)cc4)CC3)C2)cs1 [Example 251]
51

Any idea what its inhibition at 1 µM is? The compound is Cn1cccc1C(=O)N1CCOC2(CCN(CCOc3ccc(CNC[C@H](O)c4ccc(O)c5[nH]c(=O)sc45)cc3)CC2)C1 [Example 225]
60

Any idea what its inhibition at 1 µM is? The compound is O=C(CCCc1ccccc1)N1CCOC2(CCN(CCCCCCCCCNC[C@H](O)c3ccc(O)c4[nH]c(=O)sc34)CC2)C1 [Example 188]
96

Any idea what its inhibition at 1 µM is? The compound is O=C(Cc1ccccc1)N1CCOC2(CCN(CCOc3ccc(CNC[C@H](O)c4ccc(O)c5[nH]c(=O)sc45)cc3)CC2)C1 [Example 227]
48

Any idea what its inhibition at 1 µM is? The compound is O=C(Cc1noc2ccccc12)N1CCOC2(CCN(Cc3cc(F)cc(CCNC[C@H](O)c4ccc(O)c5[nH]c(=O)sc45)c3)CC2)C1 [Example 144]
35

Any idea what its inhibition at 1 µM is? The compound is O=C(c1ccc2ccccc2n1)N1CCOC2(CCN(Cc3cc(F)cc(CCNC[C@H](O)c4ccc(O)c5[nH]c(=O)sc45)c3)CC2)C1 [Example 119]
60

Any idea what its inhibition at 1 µM is? The compound is Cc1occc1C(=O)N1CCOC2(CCN(CCOc3ccc(CNC[C@H](O)c4ccc(O)c5[nH]c(=O)sc45)cc3)CC2)C1 [Example 238]
57

Any idea what its inhibition at 1 µM is? The compound is Cc1ccc2[nH]c(C(=O)N3CCOC4(CCN(Cc5cc(F)cc(CCNC[C@H](O)c6ccc(O)c7[nH]c(=O)sc67)c5)CC4)C3)cc2c1 [Example 157]
13

Any idea what its inhibition at 1 µM is? The compound is CC(C)c1cc(C(=O)N2CCOC3(CCN(CCCCCCCCCNC[C@H](O)c4ccc(O)c5[nH]c(=O)sc45)CC3)C2)no1 [Example 214]
91

Any idea what its inhibition at 1 µM is? The compound is O=C(c1cc2ccccc2s1)N1CCOC2(CCN(CCOc3ccc(CNC[C@H](O)c4ccc(O)c5[nH]c(=O)sc45)cc3)CC2)C1 [Example 235]
29

Any idea what its inhibition at 1 µM is? The compound is O=C(c1csc(C2CCC2)n1)N1CCOC2(CCN(CCCCCCCCCNC[C@H](O)c3ccc(O)c4[nH]c(=O)sc34)CC2)C1 [Example 220]
100

Any idea what its inhibition at 1 µM is? The compound is O=C(c1ccsc1Cl)N1CCOC2(CCN(CCOc3ccc(CNC[C@H](O)c4ccc(O)c5[nH]c(=O)sc45)cc3)CC2)C1 [Example 253]
35

Any idea what its inhibition at 1 µM is? The compound is Cc1nonc1CC(=O)N1CCOC2(CCN(Cc3cc(F)cc(CCNC[C@H](O)c4ccc(O)c5[nH]c(=O)sc45)c3)CC2)C1 [Example 163]
25

====

molecular target: Adrenergic β2 (H292 cells) (Homo sapiens); construct: endogenous in cells; host or cells: H292 cells; experiment: Adrenergic β2 Mediated cAMP Production, single concentration 1 μM; type: cell-based; details: NCI-H292, 1 μM compound, percentage of the maximum response generated by 1E-07M formoterol, read-out: β2 (% effect at 1 μM)
Sequence (P07550 whole entry): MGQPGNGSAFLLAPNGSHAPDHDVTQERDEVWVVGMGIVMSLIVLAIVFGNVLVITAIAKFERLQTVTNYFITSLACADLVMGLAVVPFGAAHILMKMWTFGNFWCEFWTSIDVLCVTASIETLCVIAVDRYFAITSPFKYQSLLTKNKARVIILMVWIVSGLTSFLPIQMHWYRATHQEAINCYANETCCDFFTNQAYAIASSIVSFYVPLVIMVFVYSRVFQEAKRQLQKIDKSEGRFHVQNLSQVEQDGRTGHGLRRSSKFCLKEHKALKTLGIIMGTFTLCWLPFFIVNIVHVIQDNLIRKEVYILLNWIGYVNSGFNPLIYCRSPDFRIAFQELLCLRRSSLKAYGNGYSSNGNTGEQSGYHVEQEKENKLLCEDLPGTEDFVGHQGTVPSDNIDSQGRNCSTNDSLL
MEASURED_ENDPOINT: activation at 1 µM (%)
Report the value in % with no unit label.

Any idea what its activation at 1 µM is? The molecule is CC(C)(C(=O)N1CCOC2(CCN(CCCCCCCCCNC[C@H](O)c3ccc(O)c4[nH]c(=O)sc34)CC2)C1)c1ccccc1 [Example 189]
93

Any idea what its activation at 1 µM is? The molecule is Cc1ccc(C(=O)N2CCOC3(CCN(Cc4cc(F)cc(CCNC[C@H](O)c5ccc(O)c6[nH]c(=O)sc56)c4)CC3)C2)s1 [Example 118]
101

Any idea what its activation at 1 µM is? The molecule is O=C(CCCc1cccs1)N1CCOC2(CCN(CCCCCCCCCNC[C@H](O)c3ccc(O)c4[nH]c(=O)sc34)CC2)C1 [Example 183]
91

Any idea what its activation at 1 µM is? The molecule is O=C(CCOc1ccccc1)N1CCOC2(CCN(CCCCCCCCCNC[C@H](O)c3ccc(O)c4[nH]c(=O)sc34)CC2)C1 [Example 206]
95

Any idea what its activation at 1 µM is? The molecule is Cc1ccoc1C(=O)N1CCOC2(CCN(CCOc3ccc(CNC[C@H](O)c4ccc(O)c5[nH]c(=O)sc45)cc3)CC2)C1 [Example 234]
78

Any idea what its activation at 1 µM is? The molecule is Cc1nc2ccccn2c1C(=O)N1CCOC2(CCN(Cc3cc(F)cc(CCNC[C@H](O)c4ccc(O)c5[nH]c(=O)sc45)c3)CC2)C1 [Example 152]
110

====

Record form. Attribute: β2 Intrinsic activity. Fill in for each entry.
biological target: Adrenergic β2 (H292 cells) (Homo sapiens); construct: endogenous in cells; host or cells: H292 cells; assay: Assay for Adrenergic β2 Mediated cAMP Production (concentration response, AlphaScreen cAMP detection); assay type: cell-based; settings: fraction relative to the maximum activity determined for formoterol
// return just the number, without any unit appended

Any idea what its β2 Intrinsic activity is? The compound is O=C(c1ccc2occc2c1)N1CCOC2(CCN(Cc3cc(F)cc(CCNC[C@H](O)c4ccc(O)c5[nH]c(=O)sc45)c3)CC2)C1
0.8

Any idea what its β2 Intrinsic activity is? The compound is CC(C)c1nc(C(=O)N2CCOC3(CCN(Cc4cccc(CCNC[C@H](O)c5ccc(O)c6[nH]c(=O)sc56)c4Cl)CC3)C2)cs1 [Example 80, ditrifluoroacetate]
0.8

Any idea what its β2 Intrinsic activity is? The compound is CCc1cc(C(=O)N2CCOC3(CCN(Cc4ccc(F)c(CCNC[C@H](O)c5ccc(O)c6[nH]c(=O)sc56)c4)CC3)C2)cs1 [Example 99, ditrifluoroacetate]
0.8

Any idea what its β2 Intrinsic activity is? The compound is Cc1nc(C(=O)N2CCOC3(CCN(Cc4cccc(CCNCC(O)c5ccc(O)c6c5OCC(=O)N6)c4)CC3)C2)cs1 (single isomer, unassigned; isomer 2) [Example 13]
0.8

Any idea what its β2 Intrinsic activity is? The compound is CC(C)c1nc(C(=O)N2CCOC3(CCN(Cc4cccc5c(CNC[C@H](O)c6ccc(O)c7[nH]c(=O)sc67)cccc45)CC3)C2)cs1 [Example 62, ditrifluoroacetate]
0.9
